Answer each item with its documented cell shape (Z-score).
test system: human monocyte-derived macrophages (polarized); experiment: cell shape (eccentricity) Z-score vs DMSO control; higher = more elongated, M2-like morphology; details: 5 µM; 24 h; macrophage state: M1-polarized (IFNg + TNFa), cytokines present during treatment
Give bare numbers.

Look over these answered cases.
COc1cc2nccc(Oc3ccc(NC(=O)Nc4cc(C)on4)c(Cl)c3)c2cc1OC 7.92
O=C(/C=C/c1ccccc1)c1ccc(O)cc1 8.35
O=S(=O)(c1cccc2cnccc12)N1CCNCC1 3.08
CC[C@]1(O)C[C@@H]2CN(CCc3c([nH]c4ccccc34)[C@@](C(=O)OC)(c3cc4c(cc3OC)N(C)[C@H]3[C@@](O)(C(=O)OC)[C@H](OC(C)=O)[C@]5(CC)C=CCN6CC[C@]43[C@@H]65)C2)C1 6.51

As a next step, examine the molecule that follows.
## Input GET /values?readout=cell shape (Z-score)&system=human monocyte-derived macrophages (polarized)&item= `O=Nc1c(-c2c(O)[nH]c3cc(Br)ccc23)[nH]c2ccccc12`
## Output -13.2
